The following molecules are shown together with reported growth inhibition values.
Assay: NCI Yeast Anticancer Drug Screen. Data for the sgs1 mgt1 strain (AID 161);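 note: 0% = growth of cultures given vehicle only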
Conditions: S. cerevisiae sgs1 mgt1 strain, at 50.0 µM, stronger effect = higher value
The panel holds about 79,000 compounds, 15% with a hit somewhere; the sample as a whole holds those more often.
Kindly provide the numeric value in % only, without the unit symbol.

molecule	unit.info	growth inhibition
COc1ccc(C2=CSc3ccccc3N2)cc1	%	42.3
CC(C)(C)[Si](C)(C)OCCc1ccccc1C1CC2(S(=O)(=O)c3ccccc3)ON1CC2S(=O)(=O)c1ccccc1 (configuration not stated)	%	-8.2
CC(C)C(CN)(c1ccccc1)c1ccccc1	%	-8.85
O=C(NC(=S)Nc1cccc(Cl)c1)c1ccccc1	%	33.3

Incoming: Item Cc1ccc(S(=O)(=O)OCC2CCC(=O)N2)cc1 (configuration not stated) : provide growth inhibition
Outgoing: 0.5

Incoming: Item `Cn1cnc([N+](=O)[O-])c1Sc1ccccc1N` : provide growth inhibition
Outgoing: 0.45

Incoming: Item CN1C(=O)N(C)C(N2CCCC2)c2c1nc1ccccn1c2=O (configuration not stated) : provide growth inhibition
Outgoing: -41.8
